# study.target: CTX-M9 (Escherichia coli)
# Sequence (Q9L5C8 29-291): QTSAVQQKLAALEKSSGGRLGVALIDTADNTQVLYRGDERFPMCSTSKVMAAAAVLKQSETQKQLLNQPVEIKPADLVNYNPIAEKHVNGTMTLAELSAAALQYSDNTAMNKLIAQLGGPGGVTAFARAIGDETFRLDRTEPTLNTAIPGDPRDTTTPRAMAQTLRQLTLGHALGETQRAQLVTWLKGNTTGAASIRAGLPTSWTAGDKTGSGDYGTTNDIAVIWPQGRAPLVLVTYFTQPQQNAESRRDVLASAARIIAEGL
# method: Inhibition of other class A β-lactamase CTX-M9
# Method: For compound 9a binding affinity and mode of inhibition was determined by using gradient concentrations of CENTA. […] For this compound aggregating behavior was also excluded by dynamic light scattering experiment (data not shown).
readout.name: pIC50
// pIC50 is dimensionless: -log10 of concentration (M)

Look up and state reported pIC50 for `COc1ccc2nc(C(=O)O)sc2c1` 3.80

----------
Recorded IC50 for the following compounds
# study.target: recombinant KPC-2 (Klebsiella pneumoniae, UniProt Q9F663)
# Construct: made in house; host or cells: E. coli BL21 (DE3)
# Sequence (Q9F663 25-293, looked up): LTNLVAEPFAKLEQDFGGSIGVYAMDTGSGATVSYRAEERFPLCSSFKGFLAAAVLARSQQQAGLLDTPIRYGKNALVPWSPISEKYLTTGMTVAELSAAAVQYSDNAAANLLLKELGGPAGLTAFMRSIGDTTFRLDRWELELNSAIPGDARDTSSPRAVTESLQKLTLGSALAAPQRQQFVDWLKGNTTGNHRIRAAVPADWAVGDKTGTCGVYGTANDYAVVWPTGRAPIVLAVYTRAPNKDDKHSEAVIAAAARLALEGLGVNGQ
# method: KPC-2 inhibition assay, nitrocefin as reporter substrate
# Format: biochemical
# condition.context: nitrocefin 114.28 μM (Km 36 μM), 25°, 485 nm

Previously resolved entries follow.
[[record]]
compound = "Cc1cc(C(=O)O)cc(S(=O)(=O)Nc2cccc(-c3nnn[nH]3)c2)c1C [8b]"
readout_name = "IC50"
readout_value = "> 1000 µM"

[[record]]
compound = "CC(=O)Nc1ccc(S(=O)(=O)Nc2cccc(-c3nnn[nH]3)c2)cc1 [4b]"
readout_name = "IC50"
readout_value = "> 200 µM"


Next item in the queue.
Look up and state reported IC50 for O=[N+]([O-])c1cccc(S(=O)(=O)Nc2cccc(-c3nnn[nH]3)c2)c1 [2b] > 600 µM
